Source: patent US9790189B2

System: A2780 cells
Test Description: Proliferation assay, A2780 (crystal violet)
Format: cell-based
Experimental Conditions: Homo sapiens, 96 h; A2780, 4 days; read-out: Inhibition of A2780 cell proliferation IC50
Experimental Readout: IC50 (µM)

> print(dat)
                                   molecule  experimental.readout  units.of.measure  recorded.measurement
1  CS(=N)(=N)Cc1cc(Nc2ncc(F)c(-c3ccc(F)cc3F)n2)cc(S(F)(F)(F)(F)F)c1                  IC50                µM                 0.337
2  C#CCN=S(C)(=N)Cc1cc(F)cc(Nc2ncc(F)c(-c3ccc(F)cc3OC)n2)c1 (racemic)                  IC50                µM                 0.355
3  COc1cc(F)ccc1-c1nc(Nc2cc(F)cc(CS(C)(=N)=N)c2)ncc1F                  IC50                µM                 0.201
4  CN=S(C)(=N)Cc1cc(F)cc(Nc2ncc(F)c(-c3ccc(F)cc3OC)n2)c1 (racemic)                  IC50                µM                 0.333
5  COc1cc(F)ccc1-c1nc(Nc2cc(F)cc(CS(C)(=N)=NC#N)c2)ncc1F (racemic)                  IC50                µM                 0.035
6  COc1cc(F)ccc1-c1nc(Nc2cc(F)cc(CS(C)(=N)=Nc3ccccc3)c2)ncc1F (racemic)                  IC50                µM                 0.548
